Test system: Italian ryegrass
Test: Test A preemergence
Format: in vivo, Lolium multiflorum
Conditions: 500 g ai/ha, visual injury after approx. 10 days, 0 to 100 scale (0 no effect, 100 complete control)
Text: […]
property_name: Italian Ryegrass plant response rating

The cases that follow already have their Italian Ryegrass plant response rating on record.
sample_smiles: CCc1cc(C(=O)NCC(F)(F)F)nn1Cc1cc(C(F)(F)F)no1
Italian Ryegrass plant response rating: 30

sample_smiles: CCCc1cc(C(=O)NCC(F)(F)F)nn1Cc1ccnc(OC(F)F)c1
Italian Ryegrass plant response rating: 90

sample_smiles: CCc1cc(C(=O)NOC(C)C)nn1Cc1ccnc(OC(F)F)c1
Italian Ryegrass plant response rating: 100

## Task Using the record for "CCOc1cc(C(=O)NCC(F)(F)F)nn1Cc1ccnc(OC(F)F)c1" , report its Italian Ryegrass plant response rating.
## Result 100

---

Measured Plant response rating, Sedge, Umbrella values are reported for all entries that follow.
Test system: sedge, umbrella
Assay: Test B flood
Assay type: in vivo, Cyperus difformis
Settings: 250 g ai/ha, visual rating on 0 to 100 scale (0 no effect, 100 complete control), 13 to 15 days

## Task Using the record for "CCOc1cc(C(=O)NOC(C)C)nn1Cc1ccnc(C(F)(F)F)c1" , report its Plant response rating, Sedge, Umbrella.
## Result 95

## Task Using the record for "CCCNC(=O)c1cc(CC)n(Oc2ccnc(C(F)(F)F)c2)n1" , report its Plant response rating, Sedge, Umbrella.
## Result 75

## Task Using the record for "O=C(NC1CC1)c1cc(CCCl)n(Cc2ccnc(C(F)(F)F)c2)n1" , report its Plant response rating, Sedge, Umbrella.
## Result 95

## Task Using the record for "CCOc1cc(C(=O)NCC(F)(F)F)nn1Cc1ccnc(OC(F)F)c1" , report its Plant response rating, Sedge, Umbrella.
## Result 90

## Task Using the record for "CCCCNC(=O)c1cc(Br)n(Cc2cccc(C(F)(F)F)c2)n1" , report its Plant response rating, Sedge, Umbrella.
## Result 0

---

System: galium
Assay: Test C preemergence
Assay type: in vivo, Galium aparine
Conditions: preemergence, 125 g ai/ha; scale 0 to 100, 0 is no effect, 100 is complete control
Measured Galium plant response rating values are reported for all entries that follow.
Number only, please.

sample_smiles: CCONC(=O)c1cc(CC)n(Cc2cccc(OC(F)(F)F)c2)n1
Galium plant response rating: 100
--
sample_smiles: CCCNC(=O)c1cc(CC)n(Cc2nc(C(F)(F)F)nn2C)n1
Galium plant response rating: 100
--
sample_smiles: CCc1cc(C(=O)NCC(F)(F)F)nn1Cc1cc(C(F)(F)F)nn1C
Galium plant response rating: 100

API: the following record is the query input.
## Task Using the record for "CCONC(=O)c1cc(CC)n(Cc2ccnc(C(F)(F)F)c2)n1" , report its Galium plant response rating.
## Result 10

---

System: ragweed
Test: Test C preemergence
Format: in vivo, Ambrosia elation
Conditions: preemergence, 125 g ai/ha; 13 to 15 days; scale 0 to 100, 0 = no effect, 100 = complete control
property_name: Plant response rating, Ragweed

The cases that follow already have their Plant response rating, Ragweed on record.
sample_smiles: CCCc1cc(C(=O)NOC(C)C)nn1Cc1cc(C(F)(F)F)nn1C
subject_of_test: ragweed
Plant response rating, Ragweed: 98

sample_smiles: CCc1cc(C(=O)NC2CC2)nn1Cc1ccnc(Br)c1
subject_of_test: ragweed
Plant response rating, Ragweed: 75

sample_smiles: CCOc1cc(C(=O)NCC(F)(F)F)nn1Cc1ccnc(OC(F)F)c1
subject_of_test: ragweed
Plant response rating, Ragweed: 85

API: the following record is the query input.
## Task Using the record for "CCc1cc(C(=O)NCC(F)(F)F)nn1Cc1ccnc(Br)c1" , report its Plant response rating, Ragweed.
## Result 95
